Reference source: patent US20120121540A1

Entries and their inhibition at 10 µM
- testProtocol: HCV replicon assay (luciferase reporter, ET cell line)
- Assay type: cell-based
- conditionDetails: Hepatitis C virus, HCV replicon luciferase activity in ET cells
reportedMetric: inhibition at 10 µM

• O=C(c1nc2c(C(F)(F)F)cc(-c3cn[nH]c3)cn2c1Br)N1CC=C(c2nccs2)C1 = 99.2%
• O=C(NCc1cccs1)c1nc2c(C(F)(F)F)cc(-c3cccc(F)c3)cn2c1C#CCCO = 62.5%
• O=C(NCc1cccs1)c1nc2c(C(F)(F)F)cc(-c3ccoc3)cn2c1Cl = 97.8%
• O=C(NCc1cccs1)c1nc2c(C(F)(F)F)cc(-c3cccc(F)c3)cn2c1I = 97.6%
• O=C(NCCc1cccs1)c1cc2cc(-c3ccccc3)cc(I)n2n1 = 48%
• NC(=O)Cc1c(C(=O)N2CCC(c3ccc(F)cc3)C2)nc2c(C(F)(F)F)cc(-c3ccoc3)cn12 (centres unmarked) = 53%
• O=C(NCc1cccs1)c1nc2c(C(F)(F)F)cc(-c3ccn[nH]3)cn2c1Cl = 87.5%
• O=C(c1nc2c(C(F)(F)F)cc(-c3ccoc3)cn2c1Cl)N1CC=C(c2ccc(F)cc2)C1 = 99.1%

====

- testProtocol: HCV replicon assay (luciferase reporter, ET cell line)
- Format: cell-based
- conditionDetails: Hepatitis C virus, HCV replicon luciferase activity in ET cells
Would you please tag the item rule met when its inhibition at 10 µM is 80% or above, and rule not met when it is below?

* O=C(c1nc2c(C(F)(F)F)cc(-c3ccoc3)cn2c1Cl)N1CCN(c2ncccn2)CC1 [Compound 597] | rule not met
* COc1cccc(OC)c1C1=CCN(C(=O)c2nc3c(C(F)(F)F)cc(-c4ccoc4)cn3c2Cl)CC1 [Compound 562] | rule not met
* O=C(c1nc2c(C(F)(F)F)cc(-c3ccoc3)cn2c1Cl)N1CCC(c2ccc(F)cc2)CC1 [Compound 277] | rule not met
* O=C(c1nc2c(C(F)(F)F)cc(-c3ccoc3)cn2c1Cl)N1CC=C(c2ccc(F)cc2)CC1 [Compound 595] | rule not met
* O=C(c1nc2c(C(F)(F)F)cc(-c3cn[nH]c3)cn2c1Br)N1CC=C(c2ccsc2)C1 [Compound 435] | rule met
* O=C(NCc1cccs1)c1cc2cc(-c3ccccc3)cc(Br)n2n1 [Compound 111] | rule not met
* Cc1noc(C2CCN(C(=O)c3nc4c(C(F)(F)F)cc(-c5ccoc5)cn4c3Cl)C2)n1 (stereo not shown) [Compound 475] | rule met
* O=C(c1cn2cc(-c3cn[nH]c3)cc(C(F)(F)F)c2n1)N1CC=C(c2nccs2)CC1 [Compound 612] | rule not met
* O=C(c1nc2c(C(F)(F)F)cc(-c3ccco3)cn2c1Cl)N1CCC(Cc2ccccc2)C1 (stereo not shown) [Compound 326] | rule not met
* O=C(c1nc2c(C(F)(F)F)cc(-c3ccoc3)cn2c1Cl)N1CCN(c2ccc(F)cc2F)CC1 [Compound 596] | rule not met
* O=C(c1nc2c(C(F)(F)F)cc(-c3ccoc3)cn2c1Cl)N1CCC(c2cscn2)CC1 [Compound 557] | rule met
* COc1ccc(C2CCN(C(=O)c3nc4c(C(F)(F)F)cc(-c5ccoc5)cn4c3Cl)C2)cc1 (stereo not shown) [Compound 335] | rule not met
* O=C(c1nc2c(C(F)(F)F)cc(-c3ccoc3)cc2[nH]1)N1CCC(c2ccc(F)cc2)C1 (stereo not shown) [Compound 351] | rule not met
* O=C(NCc1cccs1)c1nn2c(Br)cc(-c3ccccc3)cc2c1Br [Compound 113] | rule not met
* CCS(=O)(=O)NC1CN(C(=O)c2nc3c(C(F)(F)F)cc(-c4ccoc4)cn3c2Cl)C1 [Compound 500] | rule met
* O=C(NCc1cccs1)c1nc2c(C(F)(F)F)cc(-c3ccccc3)nc2[nH]1 [Compound 103] | rule not met
